So I've got a bunch of compounds here, and I need their lower capacity of biofilms to use the substrate compared with planktonic cultures values.
# Tested on: MAH104 biofilms
# Assay type: cell-based, Mycobacterium avium subsp hominissuis 104 (MAH104)
# test_context: O.D.590 nm, biofilm vs planktonic
Report only the number, with the unit fold understood.

Find lower capacity of biofilms to use the substrate compared with planktonic cultures (MAH104 biofilms) for the entry CCC(=O)O
5.49

Request: CC(=O)C(=O)O
2.21

And then COC(=O)C(C)=O [Methyl Pyruvate] , what is it?
1.8

And then CC(=O)O , what is it?
2.55
